Reference source for all entries: patent US10759795B2

Task for the reader: assign each of the following compounds its reported pIC50.
Target: recombinant TDP1 (Homo sapiens, UniProt Q9NUW8)
Sequence (Q9NUW8 whole entry, species assumed): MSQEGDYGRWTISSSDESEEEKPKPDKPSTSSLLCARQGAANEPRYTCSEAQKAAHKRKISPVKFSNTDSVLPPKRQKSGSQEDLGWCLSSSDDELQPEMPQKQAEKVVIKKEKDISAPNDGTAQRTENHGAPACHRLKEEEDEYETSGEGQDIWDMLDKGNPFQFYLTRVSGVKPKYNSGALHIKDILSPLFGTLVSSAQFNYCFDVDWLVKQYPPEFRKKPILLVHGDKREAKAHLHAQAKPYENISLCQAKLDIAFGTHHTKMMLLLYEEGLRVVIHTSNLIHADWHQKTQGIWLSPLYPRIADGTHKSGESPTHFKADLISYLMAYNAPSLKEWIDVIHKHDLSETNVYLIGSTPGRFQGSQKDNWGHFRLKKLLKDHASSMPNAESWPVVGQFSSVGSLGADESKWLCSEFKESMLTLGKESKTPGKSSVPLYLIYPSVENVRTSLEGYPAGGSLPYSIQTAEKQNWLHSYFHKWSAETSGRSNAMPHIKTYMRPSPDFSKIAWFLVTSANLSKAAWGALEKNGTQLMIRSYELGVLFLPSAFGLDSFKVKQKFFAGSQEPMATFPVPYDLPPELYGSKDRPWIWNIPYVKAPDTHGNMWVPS
Experiment: Recombinant TDP1 assay
Settings: recombinant TDP1, gel-based; read-out: TDP1: IC50 values for the inhibition of TDP1
pIC50: −log10 of the molar value.

For each entry beneath this line, provide reported pIC50.
1. O=C1c2ccccc2-c2c1c1cnccc1c(=O)n2CCCN1CCOCC1 [Compound 37]
2. CN(C)CCCn1c2c(c3cnccc3c1=O)C(=O)c1ccccc1-2 [Compound 45]
3. O=C1c2ccccc2-c2c1c1cccnc1c(=O)n2CCCN1CCOCC1 [Compound 39]
4. O=C1c2ccccc2-c2c1c1ncccc1c(=O)n2CCCN1CCOCC1 [Compound 36]
5. O=C1c2ccccc2-c2c1c1ccncc1c(=O)n2CCCn1ccnc1 [Compound 42]
6. O=C1c2ccccc2-c2c1c1ncccc1c(=O)n2C[C@H](O)CO [Compound 48]
7. O=C1c2ccccc2-c2c1c1cnccc1c(=O)n2C[C@H](O)CO [Compound 49]
8. O=C1c2ccccc2-c2c1c1cccnc1c(=O)n2C[C@H](O)CO [Compound 51]

Data returned:
1. < 3.95
2. 4.20
3. < 3.95
4. < 3.95
5. < 3.95
6. < 3.95
7. < 3.95
8. < 3.95

Data request: Looking for the measured pIC50 of CN(C)CCCn1c2c(c3ncccc3c1=O)C(=O)c1ccccc1-2 [Compound 44] , can you help?
Data returned: 4.05

* * *

Structures can show the parent of a compound that is named as a salt.
Task for the reader: assign each of the following compounds its reported melting point.

# count of solved cases: 3
Data request: Looking for the measured melting point of CN(C)CCCn1c2c(c3ncccc3c1=O)C(=O)c1ccccc1-2 , can you help?
Data returned: 187 to 188 °C

Data request: Looking for the measured melting point of NCCCn1c2c(c3cccnc3c1=O)C(=O)c1ccccc1-2 (as salt: hydrochloride) [Compound 60, Dihydrochloride] , can you help?
Data returned: 284 to 286 °C

Data request: Looking for the measured melting point of NCCCn1c2c(c3ccncc3c1=O)C(=O)c1ccccc1-2 (as salt: hydrochloride) [Compound 59, Dihydrochloride] , can you help?
Data returned: 253 to 254 °C

Please look at the following compound next.
Data request: Looking for the measured melting point of O=C1c2ccccc2-c2c1c1ccncc1c(=O)n2CCCn1ccnc1 , can you help?
Data returned: 251 to 252 °C

* * *

Task for the reader: assign each of the following compounds its reported melting point.

# count of solved cases: 4
Data request: Looking for the measured melting point of O=C1c2ccccc2-c2c1c1ccncc1c(=O)n2CCCN1CCOCC1 , can you help?
Data returned: 210 to 211 °C

Data request: Looking for the measured melting point of CN(C)CCCn1c2c(c3cccnc3c1=O)C(=O)c1ccccc1-2 , can you help?
Data returned: 183 to 184 °C

Data request: Looking for the measured melting point of O=C1c2ccccc2-c2c1c1cnccc1c(=O)n2CCCN1CCOCC1 , can you help?
Data returned: 218 to 219 °C

Data request: Looking for the measured melting point of CN(C)CCCn1c2c(c3ccncc3c1=O)C(=O)c1ccccc1-2 , can you help?
Data returned: 168 to 170 °C

Continuing:
Data request: Looking for the measured melting point of CN(C)CCCn1c2c(c3cnccc3c1=O)C(=O)c1ccccc1-2 , can you help?
Data returned: 177 to 178 °C
